target: Dopamine beta hydroxylase (Homo sapiens, UniProt P09172)
Construct: 125 μl of plasma; tissue Instituto Português do Sangue Transplantação; host or cells: human plasma from healthy donors
Sequence (P09172 40-617 limits assumed): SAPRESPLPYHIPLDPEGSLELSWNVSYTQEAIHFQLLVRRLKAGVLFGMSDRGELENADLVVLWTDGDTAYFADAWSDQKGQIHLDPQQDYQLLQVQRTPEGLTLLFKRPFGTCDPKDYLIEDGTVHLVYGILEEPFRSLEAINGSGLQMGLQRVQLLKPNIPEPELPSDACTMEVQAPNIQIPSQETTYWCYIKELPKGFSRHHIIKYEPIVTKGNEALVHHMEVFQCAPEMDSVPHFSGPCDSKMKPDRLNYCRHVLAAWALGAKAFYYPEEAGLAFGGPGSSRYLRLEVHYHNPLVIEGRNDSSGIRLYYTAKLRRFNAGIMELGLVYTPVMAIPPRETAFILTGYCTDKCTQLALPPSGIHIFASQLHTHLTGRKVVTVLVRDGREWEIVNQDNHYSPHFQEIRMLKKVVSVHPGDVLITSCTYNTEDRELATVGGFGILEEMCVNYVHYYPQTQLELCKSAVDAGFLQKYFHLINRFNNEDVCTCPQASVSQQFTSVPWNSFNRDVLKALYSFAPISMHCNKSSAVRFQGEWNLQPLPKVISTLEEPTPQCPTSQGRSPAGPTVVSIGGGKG
protocolSummary: Dopamine beta hydroxylase activity in human plasma
Format: biochemical
assaySetup: inhibitor 0.1 μM
Method: Furthermore, the ability of a compound to inhibit DβH activity may be assessed in human plasma using the following assay. […]. Dopamine beta hydroxylase activity in human plasma was measured by the method of Nagatsu and Udenfriend (Nagatsu, T. and Udenfriend, S. “Photometric assay of dopamine-μ-hydroxylase activity in human blood.” Clin. Chem. 18(9) 980-983, 1972) with minor modifications. […] Absorbance was linear with octopamine concentration from 0.5 to 20 μg/ml. […]
propertyMeasured: Plasma (0.1 μM), activity in % of control

Sample O=C(O)CCc1[nH]c(=S)n2c1C[C@H](c1c(F)c(F)cc(F)c1F)C2 — what was its Plasma (0.1 μM), activity in % of control?
22.7 % of control

Query (compound): O=C(Cc1[nH]c(=S)n2c1[C@@H]1C[C@]1(c1cc(Cl)ccc1F)C2)N1CCOCC1 ; field requested: Plasma (0.1 μM), activity in % of control
52.3 % of control

Suppose we examine the compound Cn1c(CC(=O)N2CCOCC2)c2n(c1=S)C[C@@]1(c3cc(Cl)ccc3F)C[C@@H]21 ; what Plasma (0.1 μM), activity in % of control value has been reported?
23.2 % of control

State the recorded Plasma (0.1 μM), activity in % of control for this entry: CN(C(=O)Cc1c2n(c(=S)n1C)C[C@@H](c1c(F)c(F)cc(F)c1F)C2)C1COC1
23.0 % of control

Fill in the blank: the reported Plasma (0.1 μM), activity in % of control of Cn1c(CC(=O)N2CC[C@@H](C#N)C2)c2n(c1=S)C[C@@H](c1c(F)ccc(F)c1F)C2 is ____.
52.0 % of control

So what does the record say about Plasma (0.1 μM), activity in % of control for O=C(Cc1[nH]c(=S)n2c1C[C@H](c1c(F)ccc(F)c1F)C2)NC1CCOCC1 ?
59.3 % of control

Consider the compound shown here: Cn1c(CC(=O)NCC#N)c2n(c1=S)C[C@@]1(c3cc(Cl)ccc3F)C[C@@H]21 What is its recorded Plasma (0.1 μM), activity in % of control?
21.1 % of control

Would you mind telling me what Plasma (0.1 μM), activity in % of control value was observed for F.Fc1ccc(Br)cc1[C@]12C[C@H]1c1c(CCNC3CC3)[nH]c(=S)n1C2 ?
21.6 % of control
